Test: Test 4: metabolic stability test in human hepatic microsome
Format: in vitro ADME
Conditions: 0.1 mg/mL microsome, 0.1 μmol/L compound, NADPH, 37° C., 30 minutes
Kindly supply the reported Metabolic stability in human hepatic microsome values for the records listed here.

IN: Given the molecule CC1CN(CCN2CCC(c3noc4ccccc34)CC2)C(=O)c2ncccc21 (centres unmarked) , what is its reported Metabolic stability in human hepatic microsome?
OUT: 0.055 mL/min/mg protein

IN: Looking for the measured Metabolic stability in human hepatic microsome of Cc1n[nH]c2c1C(=O)N(CCN1CCC(c3noc4ccccc34)CC1)CC2 , can you help?
OUT: <0.01 mL/min/mg protein

IN: Any idea what Metabolic stability in human hepatic microsome was measured for Cn1ncc2c1CCCN(CCN1CCC(c3noc4ccccc34)CC1)C2=O ?
OUT: <0.01 mL/min/mg protein

IN: What does the data say about its Metabolic stability in human hepatic microsome? Entry: Cc1c2c(nn1C)CCN(CCN1CCN(c3noc4ccccc34)CC1)C2=O
OUT: <0.05 mL/min/mg protein

IN: Please give the measured Metabolic stability in human hepatic microsome for this molecule: O=C1c2ncccc2CCN1CCN1CCN(c2noc3ccccc23)CC1
OUT: <0.01 mL/min/mg protein
